Taken from ChEMBL document CHEMBL2086366.

Target Desc: Low-density lipoprotein receptor (Homo sapiens) (UniProt P01130)
Sequence (P01130 whole entry, the tested form may be a part): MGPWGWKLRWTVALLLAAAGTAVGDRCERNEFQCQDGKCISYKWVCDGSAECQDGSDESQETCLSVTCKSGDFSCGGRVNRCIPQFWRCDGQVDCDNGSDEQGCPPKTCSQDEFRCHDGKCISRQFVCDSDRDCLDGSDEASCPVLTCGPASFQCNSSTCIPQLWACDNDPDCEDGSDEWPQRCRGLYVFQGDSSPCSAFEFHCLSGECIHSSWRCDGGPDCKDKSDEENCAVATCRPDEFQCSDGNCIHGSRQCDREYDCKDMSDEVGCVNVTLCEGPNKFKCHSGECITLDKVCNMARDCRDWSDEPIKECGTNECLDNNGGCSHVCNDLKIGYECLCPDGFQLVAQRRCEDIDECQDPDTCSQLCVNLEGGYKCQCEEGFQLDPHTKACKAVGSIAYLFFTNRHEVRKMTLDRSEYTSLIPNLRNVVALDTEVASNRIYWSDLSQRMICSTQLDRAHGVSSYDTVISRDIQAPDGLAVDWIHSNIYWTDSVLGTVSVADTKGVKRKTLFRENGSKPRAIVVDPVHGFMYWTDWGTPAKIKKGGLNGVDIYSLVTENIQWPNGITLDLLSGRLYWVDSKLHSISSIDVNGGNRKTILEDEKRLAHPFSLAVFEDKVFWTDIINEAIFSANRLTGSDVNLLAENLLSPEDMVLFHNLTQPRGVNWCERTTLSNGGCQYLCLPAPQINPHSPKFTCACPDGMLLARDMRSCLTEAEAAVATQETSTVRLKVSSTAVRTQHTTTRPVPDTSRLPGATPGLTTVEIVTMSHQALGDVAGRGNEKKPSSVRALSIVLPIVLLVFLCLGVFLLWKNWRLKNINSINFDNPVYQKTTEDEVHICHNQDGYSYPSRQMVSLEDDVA
Run Description: Displacement of S-tagged Ac-DSGL[CMPRLRGC]cDPR-NH2 from human DsRed2-fused LDLR expressed in CHO cells at 10 uM after 1 hr by FRET assay
Type: cell-based
Where a SMILES comes first, the peptide text is derived from it. Bridges are numbered along the chain shown (N, C = ends).
Listed compounds paired with reported inhibition
Dear colleague, please return just the value in %, with no unit written.

Incoming: Give inhibition; test system Low-density lipoprotein receptor (Homo sapiens) (UniProt P01130); compound CSCC[C@H](NC(=O)[C@H](CS)NC(=O)[C@H](CC(C)C)NC(=O)CNC(=O)[C@H](CO)NC(=O)[C@H](CC(=O)O)NC(C)=O)C(=O)N1CCC[C@H]1C(=O)N[C@@H](CCCNC(=N)N)C(=O)N[C@@H](CC(C)C)C(=O)N[C@@H](CCCNC(=N)N)C(=O)NCC(=O)N[C@@H](CS)C(=O)N[C@@H](CC(=O)O)C(=O)N1CCC[C@H]1C(=O)N[C@@H](CCCNC(=N)N)C(N)=O
Outgoing: 50

Incoming: Give inhibition; test system Low-density lipoprotein receptor (Homo sapiens) (UniProt P01130); compound CSCC[C@@H]1NC(=O)[C@@H](NC(=O)[C@H](CC(C)C)NC(=O)CNC(=O)[C@H](CO)NC(=O)[C@H](CC(=O)O)NC(C)=O)CSSC[C@@H](C(=O)N[C@@H](CC(=O)O)C(=O)N2CCC[C@H]2C(=O)N[C@@H](CCCNC(=N)N)C(N)=O)NC(=O)CNC(=O)[C@H](CCCNC(=N)N)NC(=O)[C@H](CC(C)C)NC(=O)[C@H](CCCNC(=N)N)NC(=O)[C@H](C)NC1=O (Ac-DSGLCMARLRGCDPR-NH2; disulfide 5-12)
Outgoing: 3

Turning now to a further compound:
Incoming: Give inhibition; test system Low-density lipoprotein receptor (Homo sapiens) (UniProt P01130); compound CSCC[C@@H]1NC(=O)[C@@H](NC(=O)[C@H](CC(C)C)NC(=O)CNC(=O)[C@H](CO)NC(=O)[C@H](CC(=O)O)NC(C)=O)CSSC[C@@H](C(=O)N[C@@H](CC(=O)O)C(=O)N2CCC[C@H]2C(=O)N[C@@H](CCCNC(=N)N)C(N)=O)NC(=O)CNC(=O)[C@H](CCCNC(=N)N)NC(=O)[C@H](C)NC(=O)[C@H](CCCNC(=N)N)NC(=O)[C@@H]2CCCN2C1=O (Ac-DSGLCMPRARGCDPR-NH2; disulfide 5-12)
Outgoing: 35

---

Target Desc: Low-density lipoprotein receptor (Homo sapiens) (UniProt P01130)
Run Description: Displacement of S-tagged Ac-[cMPRLRGC]c-NH2 from human DsRed2-fused LDLR expressed in CHO cells at 10 uM after 1 hr by FRET assay
Type: cell-based
Parameter: inhibition (%)

In the examples that follow, each entry is paired with its recorded inhibition.
Incoming: Annotate the molecule CSCC[C@@H]1NC(=O)[C@H](NC(C)=O)CSSC[C@@H](C(N)=O)NC(=O)CNC(=O)[C@H](CCCNC(=N)N)NC(=O)[C@H](CC(C)C)NC(=O)[C@H](CCCN)NC(=O)[C@@H]2CCCN2C1=O with its measured inhibition.
Outgoing: 28

Incoming: Annotate the molecule CSCC[C@H](NC(=O)[C@@H]1CCCN1C(=O)[C@@H](CCCNC(=N)N)[C@H]1CSSC[C@H](N)C(=O)NCC(=O)N[C@@H](CCCNC(=N)N)C(=O)N[C@@H](CC(C)C)C(=O)N1)C(=O)NC(C)=O with its measured inhibition.
Outgoing: 34

Incoming: Annotate the molecule CSCC[C@@H]1NC(=O)[C@H](NC(C)=O)CSSC[C@@H](C(N)=O)NC(=O)CNC(=O)[C@H](CCCN)NC(=O)[C@H](CC(C)C)NC(=O)[C@H](CCCN)NC(=O)[C@@H]2CCCN2C1=O with its measured inhibition.
Outgoing: 31

[a] CSCC[C@H](NC(=O)[C@H]1CSSC[C@H](N)C(=O)NCC(=O)N[C@@H](CCCNC(=N)N)C(=O)N[C@@H](CC(C)C)C(=O)N[C@@H](CCCNC(=N)N)C(=O)N2CCC[C@H]2C(=O)N1)C(=O)NC(C)=O
[b] CC(=O)N[C@@H]1CSSC[C@@H](C(N)=O)NC(=O)CNC(=O)[C@H](CCCNC(=N)N)NC(=O)[C@H](CC(C)C)NC(=O)[C@H](CCCNC(=N)N)NC(=O)[C@@H]2CCCN2C(=O)[C@H](Cc2cccs2)NC1=O
Incoming: Which value of inhibition is numerically greater: that of a or that of b ? Reply briefly: the label of your chosen item.
Outgoing: a
